Data credit: PubChem BioAssay AID686978

assay: qHTS for Inhibitors of human tyrosyl-DNA phosphodiesterase 1 (TDP1): qHTS in cells in absence of CPT; settings: DT40 Tdp1-/- hTDP1 cells, no CPT, ATP luminescence, 48 h; also: nearly all actives have a fitted effect of over 55% in size
Out of some 420,000 compounds screened, about 64,000 (15%) were called active. Inconclusive results (about 27%) are left out. Calls follow the shape of the dose curve; as a rule, active = well fitted inhibition curve with a large enough effect; inconclusive = small, poorly fitted or top-dose-only effect; inactive = flat fitted curve, though single readings scatter. Only a sample is shown.
Classes used: active, inactive

COc1ccc(OC)c(-n2cc3c(=O)n(C)c(=O)n(C)c3c2)c1 :: active
Cc1cc(Cl)c(S(=O)(=O)NCCC(=O)O)cc1OCC(N)=O :: inactive
COc1ccc(NC(=O)CCNS(=O)(=O)c2ccc3c(c2)c(=O)n(C)c(=O)n3C)cc1OC :: inactive
Cn1c(=O)c2cn(-c3cccc4ccccc34)cc2n(C)c1=O :: active
COc1cccc(OC)c1C(=O)Nc1ccc2c(c1)n(C)c(=O)n2C :: inactive
O=C1c2ccccc2C(=O)N1c1cccc2ccccc12 :: inactive

* * *

test: qHTS for Inhibitors of human tyrosyl-DNA phosphodiesterase 1 (TDP1): qHTS in cells in absence of CPT; conditions: DT40 Tdp1-/- hTDP1 cells, no CPT, ATP luminescence, 48 h; also: nearly all actives have a fitted effect of over 55% in size; also: potency is read from the fitted curve at half-maximal effect
Among all 420,000 compounds or so, about 64,000 (15%) were called active. Roughly 27% stayed inconclusive and do not appear here. The list is a sample of the results.
quantity: Potency

Cc1cc(C)c(S(=O)(=O)N2C=CC(C(F)(F)F)=NCC2)c(C)c1 :: inactive
COc1cccc(NC(=O)NCCN2CCCCC2)c1 :: inactive
O=C1c2cccnc2C(Nc2ccc(S(=O)(=O)N3CCCCCC3)cc2)N1Cc1ccccc1 (centres undefined) :: inactive
O=C(NCc1ccccn1)c1cc2ccccc2oc1=O :: inactive
O=C(Nc1ccccc1)N1CCC(C(=O)N2CCN(Cc3ccccc3)CC2)CC1 :: inactive
CC(=O)Nc1ccc2c3c(ccc([N+](=O)[O-])c13)CC2 :: inactive
O=C(NCCCn1ccnc1)Nc1ccc(Cl)cc1Cl :: inactive
COc1ccc(N2CC(C(=O)NCCS(=O)(=O)N3CCN(c4ccccc4)CC3)CC2=O)cc1 (centres undefined) :: inactive
CCOc1ccc(-c2nonc2NC(=O)c2oc3ccc(CC)cc3c2C)cc1 :: 20.6 µM (active)
O=C(NNC(=S)Nc1ccc(Br)cc1Cl)c1ccco1 :: inactive
COc1cc(C(=O)NCCS(=O)(=O)N2CCN(c3ccccc3)CC2)cc(OC)c1OC :: 20.6 µM (active)
CCN(CC(=O)Nc1cc(Cl)ccc1C)C(=O)Cn1c(=O)cnc2ccccc21 :: inactive
O=C(CSc1nc2ccc(Nc3nc(N4CCOCC4)nc(N4CCOCC4)n3)cc2s1)NCc1ccco1 :: 13 µM (active)
COc1ccc([C@H]2CC(=O)C=C(c3ccc(C)cc3)C2)cc1 :: inactive
C=CCn1c(CSc2nc3ccccc3s2)nnc1SCC(=O)NCc1ccco1 :: inactive
CCNC(=S)NNC(=O)C1CCN(Cc2ccccc2)CC1 :: inactive
COc1cc2c(cc1/C=C1/NC(=O)N(c3ccccc3)C1=O)OCO2 :: inactive
CCCCOCCCNC(=O)C[C@@H]1C[C@@]2(C(=O)OCC)CCCC=C2N(CCC2=CCCCC2)C1=O :: 18.4 µM (active)
O=C(Nc1ccccc1C(=O)NCCCn1ccnc1)c1ccc(Cl)cc1Cl :: inactive
CCCCOCCCNC(=O)C[C@@H]1C[C@@]2(C(=O)OC)CCCCC=C2N(CCC2=CCCCC2)C1=O :: 23.1 µM (active)
Cc1nc(N2CCOCC2)sc1C(=O)NN :: inactive
Cc1ccc(Sc2cc(C(=O)c3ccccc3C(=O)O)ccc2[N+](=O)[O-])cc1 :: inactive
CC1(c2ccccc2)NC(=O)N(CC(=O)Nc2cc(Cl)ccc2N2CCOCC2)C1=O (centres undefined) :: inactive
O=C(NCCS(=O)(=O)N1CCN(c2ccccc2)CC1)c1ccco1 :: inactive
COc1ccc([C@H]2CC(=O)C=C(c3ccc(CO)cc3)C2)cc1 :: inactive
Cc1ccc(CN2CCN(Cc3cn(C)nc3-c3ccccc3)CC2CCO)o1 (centres undefined) :: inactive
CN1CCNC(=O)C1CC(=O)NCCC1=CCCCC1 (centres undefined) :: inactive
COc1ccc(CN2CCN(Cc3cn(C)nc3-c3ccccc3)CC2CCO)c(C)c1C (centres undefined) :: 18.4 µM (active)
CCn1c(SCC(=O)NCc2ccco2)nnc1-c1ccc(N)cc1 :: inactive
COc1cc(C(=O)N/C(=C\c2cn(C)c3ccccc23)C(=O)N2CCOCC2)cc(OC)c1OC :: inactive
CSC1=NC2(C)CCCCC2C12C=CC(=O)C=C2 (centres undefined) :: inactive
COC(=O)C(C)N=Cc1ccccc1 (centres undefined) :: inactive
CCOc1ccc(-c2nonc2NC(=O)c2oc3ccc(C)cc3c2C)cc1OCC :: inactive
Cn1c2ccccc2n2c(=O)c(=O)n(CC(=O)c3ccc(F)cc3)nc12 :: inactive
S=C(Nc1ccc(Br)cc1)NC1CCN(Cc2ccccc2)CC1 :: 23.1 µM (active)
C/C(N)=C(/C#N)C(=O)COC(=O)C1CCN(C(=O)c2ccc(Cl)cc2)CC1 :: inactive
COc1ccc(CN2C(=O)C(CC(=O)NCCN3CCOCC3)CC(C(=O)N(C(C)C)C(C)C)=C2C)cc1 (centres undefined) :: inactive
CC(C)COc1ccc(C(=O)OCC(=O)NCCC2=CCCCC2)cc1 :: inactive
Cc1ccc(CN2CCN(Cc3cccc(C)n3)CC2CCO)cc1 (centres undefined) :: inactive
O=C(Nc1ccc(NC(=O)c2cccs2)cn1)c1ccco1 :: inactive
O=C(CC(c1ccccc1)c1cc(Cl)ccc1O)NCCN1CCOCC1 (centres undefined) :: inactive
O=C(Nc1c2c(nn1-c1ccccc1)CS(=O)(=O)C2)C1CCCC1 :: inactive
COc1ccc(C2C(C(C)=O)=C(O)C(=O)N2Cc2cccnc2)cc1 (centres undefined) :: inactive
CC(=O)N1C(=O)/C(=C2\SC(=S)N(NC(=O)c3ccc(O)cc3)C2=O)c2ccccc21 :: inactive

* * *

experiment: qHTS for Inhibitors of human tyrosyl-DNA phosphodiesterase 1 (TDP1): qHTS in cells in absence of CPT; details: DT40 Tdp1-/- hTDP1 cells, no CPT, ATP luminescence, 48 h; also: nearly all actives have a fitted effect of over 55% in size
In all, about 420,000 compounds went through this assay and about 64,000 (15%) were called active. Not shown: some 27% with an inconclusive outcome. The call rests on the fitted dose curve; in most records, active means well fitted inhibition curve with a large enough effect; inconclusive means small, poorly fitted or top-dose-only effect; inactive means flat fitted curve, though single readings scatter. Not all results are given here.
Classes used: Yes (active), No (inactive)

O=C(O)C1C2C=CC(O2)C1C(=O)NCCc1cccc(Cl)c1 (stereo not given) :: No
O=C(CCc1ccccc1)NCCc1cccs1 :: No
C[C@@H]1CN([C@@H](C)CO)C(=O)c2cc(Br)cnc2O[C@@H]1CN(C)C(=O)C1CCCCC1 :: No
O=C(CNC(=O)c1ccccc1)NCC(=O)OCc1ccc(Cl)cc1 :: No
CCOc1ccc(S(=O)(=O)N(CC(=O)NCCSCc2ccc(C)cc2)c2ccccc2)cc1 :: No
Cc1ccc(C(=O)N(CN2CCCC2=O)c2ccc(F)cc2)cc1 :: No
Cc1ccc(S(=O)(=O)N(CC(=O)NCCSC2CCCCC2)c2ccccc2F)cc1 :: Yes
CCN1CCN(C(=O)CSc2ccc(C)cc2)CC1 :: No
COc1ccc(Cn2nnc3c(=O)[nH]c(C4CCN(C(=O)c5ccccc5Cl)CC4)nc32)cc1 :: No
CCCNC(=O)CN(Cc1ccccc1F)S(=O)(=O)c1ccc(C)cc1 :: No

* * *

experiment: qHTS for Inhibitors of human tyrosyl-DNA phosphodiesterase 1 (TDP1): qHTS in cells in absence of CPT; conditions: DT40 Tdp1-/- hTDP1 cells, no CPT, ATP luminescence, 48 h; also: nearly all actives have a fitted effect of over 55% in size
About 64,000 (15%) of roughly 420,000 compounds were called active. Not shown: some 27% with an inconclusive outcome. Calls follow the shape of the dose curve; as a rule, active = well fitted inhibition curve with a large enough effect; inconclusive = small, poorly fitted or top-dose-only effect; inactive = flat fitted curve, though single readings scatter. These entries were drawn from the full list.
Classes used: active, inactive

C/C(CC(=O)Nc1ccc(N(C)C)cc1)=N\NC(=O)c1ccccc1F :: inactive
C/C(=N\NC(=O)c1ccccc1F)c1ccccn1 :: active
COc1ccc(C/C(C)=N/NC(=O)c2ccncc2)cc1 :: inactive
C/C(=N\NC(=O)Cc1ccc(Br)cc1)c1cccnc1 :: inactive
CC(C)CC(NS(=O)(=O)c1ccc2c(c1)oc(=O)n2C)C(=O)NCc1ccccc1Cl (stereo not drawn) :: inactive
COc1cc(OC)c(S(=O)(=O)Nc2ccccc2C(=O)O)cc1S(=O)(=O)Nc1ccccc1C(=O)O :: inactive
O=C(Nc1ccc(NC(=O)c2ccccc2F)cc1)c1ccccc1F :: inactive
Cc1ccc(-n2nnnc2CNC(=O)c2ccccc2C)cc1C :: inactive
CCOc1ccc(NC(=O)CN(C)C(=O)CSc2ccccc2)cc1OCC :: inactive
O=C(CCNS(=O)(=O)c1ccccc1)NCCCc1ccccc1 :: inactive
COCCn1c(-c2ccc(OC)c(OC)c2)nc2ccccc21 :: inactive
CCOCCn1c(-c2ccccc2)nc2ccccc21 :: active
Cc1cc(-c2ccc(/C=N/n3cnnc3)o2)c([N+](=O)[O-])cc1C :: inactive
O=C1C2C3C=CC(C4CC34)C2C(=O)N1/N=C/c1ccc(-c2ccccc2[N+](=O)[O-])o1 (stereo not drawn) :: active
c1ccc(C2CNCc3c2ccc2ccccc32)cc1 (stereo not drawn) :: active
Cc1cccc(C)c1NC(=S)N1CCCCCC1 :: inactive
CC1(c2ccc(Cl)cc2)NC(=O)N(CC(=O)c2ccc3c(c2)OCO3)C1=O (stereo not drawn) :: inactive
COc1ccc(/C(C)=N/NC(=O)c2ccc3nc[nH]c3c2)cc1 :: inactive
CCOC(=O)c1c(S(=O)(=O)Nc2ccc(CN3CCC(C)CC3)cc2)c(C)n(C)c1C :: inactive
Cn1c(N)cc(=O)n(C)c1=S :: inactive
N#C/C(=C/c1ccc(-c2ccccc2[N+](=O)[O-])o1)C(=O)NCCN1CCCCC1 :: inactive
CCOC(=O)N1CCN(C(c2ccnc3ccccc23)c2nnnn2-c2c(C)cccc2C)CC1 (stereo not drawn) :: inactive
CNC(=S)N1CCN(c2ccccn2)CC1 :: inactive
